Data origin: patent US20230017045A1

system: test plant species; experiment: Post-emergent herbicidal activity test (greenhouse, foliar spray, visual growth reduction); format: in vivo; conditions: post-emergence, 336 h, DIGSA: crabgrass (Digitaria sanguinalis), 140 g ai/ha, 14 days after application, read-out: Visual Growth Reduction (%) 14 Days After Application, DIGSA
Exercise: for every item that follows, state its recorded pest or weed control at 140 g/ha.

Would you please look over these solved cases?
> print(dat)
                                   molecule       targetofassay                        resulttype      result
1  O=C(OCc1cccc(C(F)(F)F)c1)c1nc(-c2ccc(C(F)(F)F)cc2Cl)ccc1Cl  test plant species  pest or weed control at 140 g/ha  95 to 100%
2  COC(=O)c1nc(-c2c(Cl)cc(C(F)(F)F)cc2[S+](C)[O-])ccc1Cl (stereo not drawn)  test plant species  pest or weed control at 140 g/ha    0 to 29%
3  O=C(O)c1nc(-c2ccc(SC(F)(F)F)cc2Cl)c(Cl)cc1Cl  test plant species  pest or weed control at 140 g/ha   60 to 74%
4   COC(=O)c1nc(-c2ccc(C(F)(F)F)cc2C)ccc1Cl  test plant species  pest or weed control at 140 g/ha   45 to 59%
5  COC(=O)c1nc(-c2ccc(C(F)(F)F)cc2Cl)cc(C)c1Cl  test plant species  pest or weed control at 140 g/ha   30 to 44%

Task: Fill blank: measured pest or weed control at 140 g/ha of the molecule `COC(=O)c1nc(-c2ccc(C#N)cc2Cl)c(F)cc1Cl` is ____.
Output: 75 to 84%
